Please go through the items and note down their T/C.
# Test system: CD8F1 mice, subcutaneous mammary adenocarcinoma, T/C%
# EXPERIMENTAL PROTOCOL: NCI In Vivo Anticancer Drug Screen. Data for tumor model Mammary Adenocarcinoma CD8F1 (subcutaneous) in CD8F1
# CONDITIONS: endpoint: median tumor weight (est.); dose: 200.0 mg/kg/injection; schedule: Q07DX005 (ip); vehicle: saline; higher = larger tumour
Inconclusive results are not listed.

- COMPOUND: "N=C(N)SCc1c2ccccc2c(CSC(=N)N)c2ccccc12"
  READOUT TYPE: "T/C"
  RECORDED MEASUREMENT: "25 % of control"

Record T/C per entry; entries follow.
1. NC(=O)NO
2. O=C1OC(C(O)CO)C(O)=C1O (stereo not given)
3. Nc1ccn(C2OC(CO)C(O)C2O)c(=O)n1 (stereo not given)
4. CCN(CC)CCNc1ccc(C)c2sc3ccccc3c(=O)c12

Key:
56 % of control
28 % of control
73 % of control
42 % of control

---

Please go through the items and note down their T/C.
# System: CD8F1 mice, subcutaneous mammary adenocarcinoma, T/C%
# EXPERIMENTAL PROTOCOL: NCI In Vivo Anticancer Drug Screen. Data for tumor model Mammary Adenocarcinoma CD8F1 (subcutaneous) in CD8F1
# CONDITIONS: endpoint: median tumor weight (est.); dose: 3.12 mg/kg/injection; schedule: Q07DX005 (ip); vehicle: saline; higher = larger tumour
Inconclusive results are not listed.

// known answers, use as guide
- MOLECULE: "CCOC(=O)NC1=C(N2CC2)C(=O)C(NC(=O)OCC)=C(N2CC2)C1=O"
  RECORDED MEASUREMENT: "56 % of control"
- MOLECULE: "OCC1OC(n2cnc3cncnc32)C(O)C1O (centres undefined)"
  RECORDED MEASUREMENT: "114 % of control"
- MOLECULE: "COC1N(C2CC(O)C(CO)O2)C(=O)NC(=O)C1(F)Br (centres undefined)"
  RECORDED MEASUREMENT: "74 % of control"

Here is the next item to consider.
Exercise: Which T/C value is on record for OCCN1CCN(CC/C=C2/c3ccccc3Sc3ccc(C(F)(F)F)cc32)CC1 ?
Key: 70 % of control

---

Please go through the items and note down their T/C.
# Test system: CD8F1 mice, subcutaneous mammary adenocarcinoma, T/C%
# EXPERIMENTAL PROTOCOL: NCI In Vivo Anticancer Drug Screen. Data for tumor model Mammary Adenocarcinoma CD8F1 (subcutaneous) in CD8F1
# CONDITIONS: endpoint: median tumor weight (est.); dose: 6.25 mg/kg/injection; schedule: Q07DX005 (ip); vehicle: saline with Tween-80; higher = larger tumour
Records with an inconclusive call do not appear.

// known answers, use as guide
- MOLECULE: "CCC[P+](c1ccccc1)(c1ccccc1)c1ccccc1"
  T/C: "72 % of control"
- MOLECULE: "COC1=CC(=O)C(OC)=C(OC)C1=O"
  T/C: "63 % of control"

Record T/C per entry; entries follow.
1. Cc1c(CNc2ccc(C(=O)NC(CC(=O)O)C(=O)O)cc2)ccc2nc(N)nc(N)c12 (stereo unspecified)
2. CS(=O)(=O)c1ncc(Br)cn1
3. COc1cc(O)c2c(O)c3c(c4c2c1[C@]1(C4)C(C)=CCCC1(C)C)[C@H](O)[C@@]1(O)CC(=O)C(C(N)=O)=C(O)[C@@]1(O)C3=O
4. c1ccc2c(c1)nnn1c3cnccc3nc21
5. O=c1s[se]c2ccccc12
6. CC(=O)O[C@@H]1[C@@H](O)C2=C3[C@]4(C)[C@@H]1C(C)(C)C(=O)C[C@@H]4[C@]3(O)[C@H](OC(C)=O)[C@@]1(C[C@@H]1C)C2=O
7. CN(CO)c1nc(N(C)CO)nc(N(C)CO)n1

Key:
29 % of control
242 % of control
56 % of control
85 % of control
187 % of control
112 % of control
92 % of control

Record T/C per entry; entries follow.
1. C1CN2CCC1CC2
2. NC(N)=NC(N)=Nc1ccc(-c2ccc(N=C(N)N=C(N)N)cc2)cc1

Key:
1: 111 % of control; 2: 118 % of control
